- TARGET: HPA (Homo sapiens, UniProt P04746)
- Sequence (P04746 16-511): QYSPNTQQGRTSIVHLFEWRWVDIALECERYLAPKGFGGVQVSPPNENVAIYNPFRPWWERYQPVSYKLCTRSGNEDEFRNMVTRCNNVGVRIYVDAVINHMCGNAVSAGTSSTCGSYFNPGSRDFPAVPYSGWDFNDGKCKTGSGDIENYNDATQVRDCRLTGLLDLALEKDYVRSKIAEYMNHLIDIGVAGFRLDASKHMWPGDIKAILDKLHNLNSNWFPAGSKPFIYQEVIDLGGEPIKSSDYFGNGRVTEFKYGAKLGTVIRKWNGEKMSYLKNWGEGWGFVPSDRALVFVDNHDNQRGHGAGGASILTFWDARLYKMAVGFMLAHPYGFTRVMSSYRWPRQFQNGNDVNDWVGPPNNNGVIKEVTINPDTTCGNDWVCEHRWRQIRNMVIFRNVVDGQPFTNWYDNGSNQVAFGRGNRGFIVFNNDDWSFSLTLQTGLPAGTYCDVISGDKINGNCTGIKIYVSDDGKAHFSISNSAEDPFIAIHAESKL
- EXPERIMENT: Binding mode (distribution of hydrolysis products) by HPLC
- Type: biochemical
- TEST_CONTEXT: share of product G3P
Hydrolysis product G3P for assorted compounds
MEASURED_METRIC: Hydrolysis product G3P (%)

INSERT INTO measurements (compound, measurement) VALUES
  ('O=[N+]([O-])c1ccc(O[C@H]2O[C@H](CO)[C@@H](O[C@H]3O[C@H](CO)[C@@H](O[C@H]4O[C@H](CO)[C@@H](O[C@H]5O[C@H](CO)[C@@H](O[C@H]6O[C@H](CO)[C@@H](O[C@H]7O[C@H](CO)[C@@H](O)[C@H](O)[C@H]7O)[C@H](O)[C@H]6O)[C@H](O)[C@H]5O)[C@H](O)[C@H]4O)[C@H](O)[C@H]3O)[C@H](O)[C@H]2O)cc1 [Substrate G6P]', 76),
  ('O=[N+]([O-])c1ccc(O[C@H]2O[C@H](CO)[C@@H](O[C@H]3O[C@H](CO)[C@@H](O[C@H]4O[C@H](CO)[C@@H](O[C@H]5O[C@H](CO)[C@@H](O[C@H]6O[C@H](CO)[C@@H](O[C@H]7O[C@@H]8COC(c9ccccc9)O[C@H]8[C@H](O)[C@H]7O)[C@H](O)[C@H]6O)[C@H](O)[C@H]5O)[C@H](O)[C@H]4O)[C@H](O)[C@H]3O)[C@H](O)[C@H]2O)cc1 (stereo partly drawn)', 12),
  ('O=[N+]([O-])c1ccc(O[C@H]2O[C@H](CO)[C@@H](O[C@H]3O[C@H](CO)[C@@H](O[C@H]4O[C@H](CO)[C@@H](O[C@H]5O[C@H](CO)[C@@H](O[C@H]6O[C@H](COCc7ccccc7)[C@@H](O)[C@H](O)[C@H]6O)[C@H](O)[C@H]5O)[C@H](O)[C@H]4O)[C@H](O)[C@H]3O)[C@H](O)[C@H]2O)cc1', 0),
  ('O=[N+]([O-])c1ccc(O[C@H]2O[C@H](CO)[C@@H](O[C@H]3O[C@H](CO)[C@@H](O[C@H]4O[C@H](CO)[C@@H](O[C@H]5O[C@H](COCc6ccccc6)[C@@H](O)[C@H](O)[C@H]5O)[C@H](O)[C@H]4O)[C@H](O)[C@H]3O)[C@H](O)[C@H]2O)cc1', 0),
  ('O=[N+]([O-])c1ccc(O[C@H]2O[C@H](CO)[C@@H](O[C@H]3O[C@H](CO)[C@@H](O[C@H]4O[C@H](CO)[C@@H](O[C@H]5O[C@H](CO)[C@@H](O)[C@H](O)[C@H]5O)[C@H](O)[C@H]4O)[C@H](O)[C@H]3O)[C@H](O)[C@H]2O)cc1 [Substrate G4P]', 0),
  ('O=[N+]([O-])c1ccc(O[C@H]2O[C@H](CO)[C@@H](O[C@H]3O[C@H](CO)[C@@H](O[C@H]4O[C@H](CO)[C@@H](O[C@H]5O[C@H](CO)[C@@H](O[C@H]6O[C@H](CO)[C@@H](O[C@H]7O[C@H](CO)[C@@H](O[C@H]8O[C@@H]9COC(c%10ccccc%10)O[C@H]9[C@H](O)[C@H]8O)[C@H](O)[C@H]7O)[C@H](O)[C@H]6O)[C@H](O)[C@H]5O)[C@H](O)[C@H]4O)[C@H](O)[C@H]3O)[C@H](O)[C@H]2O)cc1 (stereo partly drawn)', 22);
